Data origin, for the record: ChEMBL document CHEMBL4325870

Target Entity: Estrogen receptor (Homo sapiens)
Sequence (P03372 whole entry): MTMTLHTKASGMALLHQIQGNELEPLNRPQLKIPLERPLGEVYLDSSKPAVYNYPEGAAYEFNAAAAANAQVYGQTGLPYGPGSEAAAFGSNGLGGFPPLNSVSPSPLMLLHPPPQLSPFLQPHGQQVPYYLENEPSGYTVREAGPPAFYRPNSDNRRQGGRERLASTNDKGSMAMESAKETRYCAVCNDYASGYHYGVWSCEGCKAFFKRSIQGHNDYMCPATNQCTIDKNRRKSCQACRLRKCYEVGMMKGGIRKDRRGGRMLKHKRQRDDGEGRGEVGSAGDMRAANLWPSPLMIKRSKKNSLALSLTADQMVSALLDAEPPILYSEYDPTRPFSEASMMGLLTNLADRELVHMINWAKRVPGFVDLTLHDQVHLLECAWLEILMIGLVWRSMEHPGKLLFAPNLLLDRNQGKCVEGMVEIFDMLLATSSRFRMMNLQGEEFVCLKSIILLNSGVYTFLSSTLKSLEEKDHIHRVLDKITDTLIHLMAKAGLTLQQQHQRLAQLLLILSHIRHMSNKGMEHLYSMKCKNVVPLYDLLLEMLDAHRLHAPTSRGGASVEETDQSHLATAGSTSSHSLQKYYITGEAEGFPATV
Protocol Text: Displacement of fluorescent estrogen ligand from recombinant human full length untagged ERalpha expressed in Spodoptera frugiperda insect cells measured after 2 hrs by fluorescence polarization assay
Quantity Kind: IC50 (nM)
Give the number; nM is assumed, so skip it.

COc1ccc(-c2cc3ccc(OC)cc3nc2Nc2ccc(NC(=O)CN3CCN(C)CC3)cc2)cc1 2330

Please look at the following compound next.
// Input: "COc1ccc(-c2cc3cc(OC)ccc3nc2Nc2ccc(NC(=O)CN3CCN(C)CC3)cc2)cc1" . Output its IC50 only. 1780

====

System: Ishikawa
Protocol Text: Stimulation of cell proliferation in human Ishikawa cells at 1 to 10 uM after 48 hrs by MTT assay
Type: ADME, cell-based
Quantity Kind: Activity

COc1ccc(-c2cc3ccc(OC)cc3nc2Nc2ccc(NC(=O)CN3CCN(C)CC3)cc2)cc1 Non-Toxic
COc1ccc(-c2cc3cc(OC)ccc3nc2Nc2ccc(NC(=O)CN3CCN(C)CC3)cc2)cc1 Non-Toxic
CC/C(=C(\c1ccccc1)c1ccc(OCCN(C)C)cc1)c1ccccc1 Toxic
O=C(c1ccc(OCCN2CCCCC2)cc1)c1c(-c2ccc(O)cc2)sc2cc(O)ccc12 Toxic
